List of % Inhibition values.
- System: P. falciparum stage V gametocytes
- Set-up: BacTiter-Glo ATP luminescence viability of purified stage V gametocytes in 384-well plates, per cent inhibition versus DMSO
- Experimental parameters: 48 h, 5 µM; inhibitor
The whole screen tested about 13,000 compounds, of which about 3,200 (25%) showed an effect of 50% or more. This is one part of the list.
Endpoint name: % Inhibition (%)

INSERT INTO results (compound, target_system, measurement_units, observed_measurement) VALUES
  ('C[C@H](NC(=O)C1CCCC1)C(=O)Nc1ccc(-c2ccc(-c3nc4ccc(C(F)(F)F)cc4[nH]3)cc2)cc1 [TCMDC-137052]', 'P. falciparum stage V gametocytes', '%', -25.16),
  ('CC(=O)Nc1ncc(C(=O)Nc2cccc(-c3cccc(-c4nc5ccc(C(F)(F)F)cc5[nH]4)c3)c2)s1 [TCMDC-136918]', 'P. falciparum stage V gametocytes', '%', 17.49),
  ('Cc1cc(NC(=O)NCCN2CCC(NC(=O)c3ccc(C(F)(F)F)cc3)CC2)c2ccccc2n1 [TCMDC-136174]', 'P. falciparum stage V gametocytes', '%', -43.73),
  ('Cc1cc(NC(=O)NCCN2CCC(NC(=O)c3cccc(Br)c3)C2)c2ccccc2n1 (stereo not shown) [TCMDC-136175]', 'P. falciparum stage V gametocytes', '%', 92.91),
  ('CCCc1cc(NC2CCN(C)CC2)nc(Nc2ccc(C)cc2)n1 [TCMDC-134003]', 'P. falciparum stage V gametocytes', '%', 32.47),
  ('Cc1cccc2[nH]c(-c3cccc(-c4ccc(NC(=O)c5cccnc5)cc4)c3)nc12 [TCMDC-136929]', 'P. falciparum stage V gametocytes', '%', -10.6),
  ('COc1cc(Cc2cnc(N)nc2N)cc(OCCNC(=O)OCc2ccccc2)c1OC [TCMDC-138056]', 'P. falciparum stage V gametocytes', '%', -17.39),
  ('Cc1cc(NC(=O)NCCN2CCC(NC(=O)c3ccc(Cl)cc3)CC2)c2ccccc2n1 [TCMDC-136171]', 'P. falciparum stage V gametocytes', '%', -56.82),
  ('Cc1[nH]c(C)c(-c2ccc(Oc3ccc(C(F)(F)F)cc3)cc2)c(=O)c1Br [TCMDC-137406]', 'P. falciparum stage V gametocytes', '%', 68.39),
  ('CN1CCN(CCNc2c3ccccc3nc3ccc4ccccc4c23)CC1 [TCMDC-137724]', 'P. falciparum stage V gametocytes', '%', 54.46),
  ('CCN(CCN(C)C)Cc1ccc(-c2ccc(NS(=O)(=O)c3cccc4cccnc34)cc2)cc1 [TCMDC-136600]', 'P. falciparum stage V gametocytes', '%', 46.29),
  ('Cc1cc(NC(=O)NCCN2CCC(NS(=O)(=O)c3ccc(Br)cc3)C2)c2ccccc2n1 (stereo not shown) [TCMDC-136139]', 'P. falciparum stage V gametocytes', '%', 5.798),
  ('Cc1cccc2[nH]c(-c3cccc(-c4ccc(NC(=O)c5cnccc5C(F)(F)F)cc4)c3)nc12 [TCMDC-137119]', 'P. falciparum stage V gametocytes', '%', 66.25),
  ('CCCCc1cc(NC2CCN(C)CC2)nc(Nc2ccccc2)n1 [TCMDC-133994]', 'P. falciparum stage V gametocytes', '%', 6.593),
  ('Cc1cc(N(C)C)nc(Nc2ccc(NC(=O)c3ccc(Br)o3)cc2)n1 [TCMDC-124972]', 'P. falciparum stage V gametocytes', '%', -1.025),
  ('CCOC(=O)c1c(CN(CC)CC)n(-c2ccccc2)c2cc(Br)c(O)cc12 [TCMDC-125679]', 'P. falciparum stage V gametocytes', '%', -14.42),
  ('CN1CCN(CCNc2c3ccccc3nc3c2ccc2ccccc23)CC1 [TCMDC-137723]', 'P. falciparum stage V gametocytes', '%', 92.22),
  ('Cc1cc(NC(=O)NCCN2CCC(NC(=O)c3ccc(F)cc3)CC2)c2ccccc2n1 [TCMDC-136173]', 'P. falciparum stage V gametocytes', '%', 91.01),
  ('Cc1[nH]c(C)c(-c2ccc(Nc3ccc(C(F)(F)F)cn3)cc2)c(=O)c1Br [TCMDC-135546]', 'P. falciparum stage V gametocytes', '%', 74.1),
  ('Cc1cccc2[nH]c(-c3cccc(-c4cccc(NC(=O)c5cccnc5)c4)c3)nc12 [TCMDC-136927]', 'P. falciparum stage V gametocytes', '%', 36.77),
  ('O=C(NCc1ccccc1)OC1CNCCC1c1ccc(C(O)Cc2ccccc2)cc1 (stereo not shown) [TCMDC-141020]', 'P. falciparum stage V gametocytes', '%', 26.78),
  ('Cc1cc(NC(=O)NCCN2CCC(NS(=O)(=O)c3cccc(Br)c3)C2)c2ccccc2n1 (stereo not shown) [TCMDC-136138]', 'P. falciparum stage V gametocytes', '%', 15.89);
